Target: T1, cynomolgus IL-18BP (cynomolgus monkey)
T1 construct: also called cyno IL-18BP; cyIL-18BP
T1 chain: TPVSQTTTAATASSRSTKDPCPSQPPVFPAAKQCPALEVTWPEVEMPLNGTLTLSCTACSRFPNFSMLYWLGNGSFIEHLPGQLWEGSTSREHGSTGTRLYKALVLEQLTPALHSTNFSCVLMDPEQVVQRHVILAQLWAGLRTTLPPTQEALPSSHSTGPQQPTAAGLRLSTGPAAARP
Assay: BLI, apparent KD
Kd vs 0.5 nM: less than gives Satisfied; not less than gives Not satisfied.

Worked set:
binder="SA301a HC-V100aM (antibody, name in Kabat numbering, V domains shown, IgG1 kappa) VH: QVQLQESGPGLVKPSQTLSLTCTVSGYSITSDYNSHWIRQPPGKGLEWIGYIHYSGSTNYNPSLKSRVTISRDTSKNQFSLKLSSVTAADTAVYYCARNYGSIYMNYFDYWGQGTLVTVSS VL: EIVLTQSPATLSLSPGERATLSCSASSSVSYMYWYQQKPGQAPRPLIYRTSNLASGIPARFSGSGSGTDFTLTISSLEPEDFAVYYCQQYHSYPTFGGGTKVEIK" group_label=Satisfied
binder="SA301a HC-V100aA (antibody, name in Kabat numbering, V domains shown, IgG1 kappa) VH: QVQLQESGPGLVKPSQTLSLTCTVSGYSITSDYNSHWIRQPPGKGLEWIGYIHYSGSTNYNPSLKSRVTISRDTSKNQFSLKLSSVTAADTAVYYCARNYGSIYANYFDYWGQGTLVTVSS VL: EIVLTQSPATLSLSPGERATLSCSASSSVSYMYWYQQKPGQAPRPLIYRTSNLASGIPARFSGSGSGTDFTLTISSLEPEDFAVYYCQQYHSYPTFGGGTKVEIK" group_label=Satisfied
binder="SA301a HC-V100aY (antibody, name in Kabat numbering, V domains shown, IgG1 kappa) VH: QVQLQESGPGLVKPSQTLSLTCTVSGYSITSDYNSHWIRQPPGKGLEWIGYIHYSGSTNYNPSLKSRVTISRDTSKNQFSLKLSSVTAADTAVYYCARNYGSIYYNYFDYWGQGTLVTVSS VL: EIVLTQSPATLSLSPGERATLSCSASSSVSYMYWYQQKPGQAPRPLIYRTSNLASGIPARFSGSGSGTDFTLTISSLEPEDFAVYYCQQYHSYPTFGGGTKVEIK" group_label="Not satisfied"

q: Take the binder SA301a HC-V100aS (antibody, name in Kabat numbering, V domains shown, IgG1 kappa) VH: QVQLQESGPGLVKPSQTLSLTCTVSGYSITSDYNSHWIRQPPGKGLEWIGYIHYSGSTNYNPSLKSRVTISRDTSKNQFSLKLSSVTAADTAVYYCARNYGSIYSNYFDYWGQGTLVTVSS VL: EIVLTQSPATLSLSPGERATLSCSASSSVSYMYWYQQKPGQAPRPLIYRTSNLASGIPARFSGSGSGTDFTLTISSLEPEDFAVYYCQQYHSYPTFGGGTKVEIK and say whether its Kd is less than 0.5 nM.
a: Not satisfied

q: Below 0.5 nM on Kd? Entry SA301a HC-Y100A (antibody, V domains shown) VH: QVQLQESGPGLVKPSQTLSLTCTVSGYSITSDYNSHWIRQPPGKGLEWIGYIHYSGSTNYNPSLKSRVTISRDTSKNQFSLKLSSVTAADTAVYYCARNYGSIAVNYFDYWGQGTLVTVSS VL: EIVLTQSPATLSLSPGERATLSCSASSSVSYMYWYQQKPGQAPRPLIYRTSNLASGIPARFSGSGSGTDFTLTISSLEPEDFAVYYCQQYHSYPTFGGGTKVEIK
a: Not satisfied
